tested on: HCV genotype 1b replicon; experiment: HCV replicon assay, cell ELISA with antibody to replicon-encoded NS3/4A (genotype 1b replicon); assay type: cell-based, hepatitis C virus; conditions: Hepatitis C virus, 96 h, read-out: 1b IC50(nM), HCV genotype 1b replicon; 96 hours incubation; NS3/4A cell ELISA

molecule	IC50 / nM
CNC(=O)c1c(-c2ccc(F)cc2)oc2cc(N(C)S(C)(=O)=O)c(-c3ccc4c(c3)-c3c(Cl)c5ccccc5n3C(C3CC3)O4)cc12 (stereo not drawn)	50.4
CNC(=O)c1c(-c2ccc(F)cc2)oc2cc(N(C)S(C)(=O)=O)c(-c3csc(-c4nc5c(F)cccc5o4)c3)cc12	1.53
CNC(=O)c1c(-c2ccc(F)cc2)oc2cc(N(CCC(O)CO)S(C)(=O)=O)c(-c3ccc(OC)c(-c4nc5c(F)cccc5o4)c3)cc12 (stereo not drawn)	3.61
CNC(=O)c1c(-c2ccc(F)cc2)oc2cc(N(C)S(C)(=O)=O)c(-c3cccc(-c4cc5c(o4)CCN(C(C)=O)C5)c3)cc12	7
CNC(=O)c1c(-c2ccc(F)cc2)oc2cc(N(CC3(C#N)CC3)S(C)(=O)=O)c(-c3ccc(OC)c(-c4nc5c(F)cc(F)cc5o4)c3)cc12	7.62
CNC(=O)c1c(-c2ccc(F)cc2)oc2cc(N(CCC(O)CC#N)S(C)(=O)=O)c(-c3ccc(OC)c(-c4nc5c(F)cccc5o4)c3)cc12 (stereo not drawn)	3.27
CNC(=O)c1c(-c2ccc(F)cc2)oc2cc(N(C3COC3)S(C)(=O)=O)c(-c3ccc(OC)c(-c4nc5c(C#N)cccc5o4)c3)cc12	3.03
CNC(=O)c1c(-c2ccc(F)cc2)oc2cc(N(C3CC(C#N)C3)S(C)(=O)=O)c(-c3ccc(OC)c(-c4nc5c(C#N)cccc5o4)c3)cc12 (stereo not drawn)	5.85
CNC(=O)c1c(-c2ccc(F)cc2)oc2cc(N(CC(O)Cn3ncc4ccccc43)S(C)(=O)=O)c(-c3ccc(OC)c(-c4nc5c(F)cccc5o4)c3)cc12 (stereo not drawn)	11.8
CNC(=O)c1c(-c2ccc(F)cc2)oc2cc(N(C)S(C)(=O)=O)c(-c3ccc(OC)c(-c4nc5ccc(-c6cccnc6)cc5o4)c3)cc12	8.62
CNC(=O)c1c(-c2ccc(F)cc2)oc2cc(N(CCCF)S(C)(=O)=O)c(-c3ccc(OC)c(-c4nc5ncccc5o4)c3)cc12	1.8
CNC(=O)c1c(-c2ccc(F)cc2)oc2cc(N(CCC3COC(C)(C)O3)S(C)(=O)=O)c(-c3ccc(OC)c(-c4nc5c(F)cccc5o4)c3)cc12 (stereo not drawn)	11.3
CNC(=O)c1c(-c2ccc(F)cc2)oc2cc(N(C)S(C)(=O)=O)c(-c3ccc(OC)c(-c4nc5c(F)ccc(F)c5o4)c3)cc12	2.1
CNC(=O)c1c(-c2ccc(F)cc2)oc2cc(N(C)S(C)(=O)=O)c(-c3cc(-c4nc5cccc(F)c5o4)ccc3O)cc12	11.1
CNC(=O)c1c(-c2ccc(F)cc2)oc2cc(N(CCCF)S(C)(=O)=O)c(-c3cccc(-c4nc5ncccc5o4)c3)cc12	1.3
CNC(=O)c1c(-c2ccc(F)cc2)oc2cc(N(C)S(C)(=O)=O)c(-c3ccc(OC)c(-c4cc5ccc(F)cc5s4)c3)cc12	27.3
CNC(=O)c1c(-c2ccc(F)cc2)oc2cc(N(C)S(C)(=O)=O)c(-c3cc4c(c(-c5nc6c(F)cccc6o5)c3)OCCO4)cc12	4.37
CNC(=O)c1c(-c2ccc(F)cc2)oc2cc(N(CC3CC(O)C3)S(C)(=O)=O)c(-c3ccc(OC)c(-c4nc5c(F)cccc5o4)c3)cc12 (stereo not drawn)	6.21
